test system: RXF 393 renal; test: NCI-60 one-dose screen, 48 h (100 = growth as untreated, 0 = no growth, -100 = all killed); conditions: 10 µM unless noted
This is part of a sample that, as a whole, favours compounds with a hit. Of some 83,000 tested, about 20% had one in any assay. Calls of active or inactive are those of the source. How the source made its calls: active means growth percent below 10; inactive means the rest.
MEASURED ENDPOINT: growth

Fill in the blank: the reported growth of N#Cc1c(-c2ccc(Cl)cc2)nc(SCc2ccccc2)nc1N1CCNCC1 is ____. 74.4% (inactive)

Report growth for N#Cc1c(-c2ccc(F)cc2)nc2c(C#N)c(Nc3ccccc3)nn2c1N please. 110% (inactive)

For the compound N/C(=N\c1nc2c(Cl)cc(Cl)cc2s1)C(Cl)(Cl)Cl , what growth is on record? 53.7% (inactive)

Tell me the measured growth of Cc1nc(-c2cc3ccccc3oc2=O)ccc1C(=O)/C=C/c1ccc(N2CCOCC2)cc1 , please. 89.6% (inactive)

growth lookup needed for Clc1ccc2c(NCCCn3ccnc3)c3oc4ccc(Cl)cc4c3nc2c1 , thanks. 55.4% (inactive)

Need growth, item COc1cc2cc(Oc3ccc(NC(=O)c4cccc(C(F)(F)F)c4)cc3)c(C)nc2cc1OCCN1CCCCC1 -16% (active)

What value of measured growth is listed for CC(=O)Nc1cc(F)cc(-c2ccc3[nH]cc(-c4ccccc4)c3n2)c1 ? -11.8% (active)

Looking for the measured growth of COc1ccc(NC2=C(Cl)C(=O)C(C)=C(C)C2=O)cc1OC , can you help? 108% (inactive)

Return reported growth; argument: CC(=NNc1ncnc2ccccc12)c1ccc(S(C)(=O)=O)cc1 114% (inactive)
